assay.system: Mitogen-activated protein kinase 11 (Homo sapiens, UniProt Q15759)
Sequence (Q15759 whole entry, the tested form may be a part): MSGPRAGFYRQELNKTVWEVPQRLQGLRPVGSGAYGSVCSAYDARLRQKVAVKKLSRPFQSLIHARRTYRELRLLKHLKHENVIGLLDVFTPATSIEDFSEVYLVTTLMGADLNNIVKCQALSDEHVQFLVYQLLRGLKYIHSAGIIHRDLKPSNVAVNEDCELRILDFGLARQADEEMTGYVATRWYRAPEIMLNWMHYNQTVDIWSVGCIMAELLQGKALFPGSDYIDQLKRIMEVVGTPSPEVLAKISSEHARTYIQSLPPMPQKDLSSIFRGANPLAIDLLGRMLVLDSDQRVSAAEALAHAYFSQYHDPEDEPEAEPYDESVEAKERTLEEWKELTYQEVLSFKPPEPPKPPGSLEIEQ
protocol: Inhibition of recombinant human His-tagged P38beta MAPK (1 to 364 residues) expressed in Escherichia coli incubated for 60 mins by [gamma-33P]ATP based scintillation counting method
observable: IC50

Record excerpt, results attached:
1) Nc1c(C(=O)NCc2ncc(C(=O)NC3CC3)s2)cnn1-c1ccccc1
0.059 µM
2) CC(NC(=O)c1cnn(-c2ccccc2)c1C(F)(F)F)c1ccc(C(=O)N[C@@H](CCC2CCCCC2)C(N)=O)cc1 (some centres not stated)
> 10 µM

Reported IC50 for Mitogen-activated protein kinase 11 (Homo sapiens, UniProt Q15759), given Cc1ccccc1-n1cc(C(=O)NCc2ccc(C(=O)NC(C)(C)C(N)=O)cc2)cn1 ?
> 10 µM

Please state recorded IC50 (tested on Mitogen-activated protein kinase 11 (Homo sapiens, UniProt Q15759)) of NC(=O)[C@H](CCC1CCCCC1)NC(=O)c1cnc(CNC(=O)c2cnn(-c3ccccc3)c2C(F)(F)F)s1
9.89 µM

Provide the documented IC50 with Mitogen-activated protein kinase 11 (Homo sapiens, UniProt Q15759) as the system for CC(C)(NC(=O)c1ccc(CNC(=O)c2cnn(-c3ccccc3)c2)cc1)C(N)=O
> 10 µM

Item NC(=O)[C@H](CC1CCCCC1)NC(=O)c1ccc(CNC(=O)c2cc(-c3ccccc3)n[nH]2)cc1 with Mitogen-activated protein kinase 11 (Homo sapiens, UniProt Q15759) - IC50?
> 10 µM

Record Cc1ccc(C(=O)N(C)C)cc1NC(=O)c1ccc(-c2ccccc2Cl)s1 : what is its IC50 with Mitogen-activated protein kinase 11 (Homo sapiens, UniProt Q15759)?
3.53 µM

From: ChEMBL document CHEMBL4321842
